Where a name gives a salt, the structure may show the parent alone.
OBSERVATION_TYPE: melting point

The cases that follow already have their melting point on record.
INPUT: For the compound Cc1nc2cc(C#N)ccc2n1-c1ccc(C(=O)N(C)[C@@H]2CCN(C3CCC3)C2)cc1 (as salt: hydrochloride) , report melting point.
OUTPUT: 240 to 242 °C

INPUT: For the compound Cc1nc2ccccc2n1-c1ccc(C(=O)N(C)C2CCN(C(C)C)CC2)cc1F (as salt: hydrochloride) , report melting point.
OUTPUT: 279 to 281 °C

INPUT: For the compound Cc1nc2ccccc2n1-c1ccc(C(=O)N(C)[C@@H]2CCN(C(C)C)C2)cc1 (as salt: hydrochloride) , report melting point.
OUTPUT: 181 to 183 °C

Proceed to the following item.
INPUT: For the compound CC(C)N1CCC(N(C)C(=O)c2ccc(-n3ncc4ccccc43)cc2)CC1 (as salt: hydrochloride) , report melting point.
OUTPUT: 151 to 162 °C
